src = ChEMBL document CHEMBL1821564

Documented Ratio IC50 across a set of compounds
Species on record: Homo sapiens
test-summary: Selectivity index, ratio of IC50 for human recombinant MAO-A to IC50 for human recombinant MAO-B

Examples from the recorded data:
>>> print(df.to_string())
                                   compound  observation_type  experimental_value
0  CC(=O)N1N=C(c2ccc([N+](=O)[O-])cc2)OC1c1ccc(Cl)cc1 (stereo not drawn)        Ratio IC50               > 822
1  CC(=O)N1N=C(c2ccccc2)OC1c1ccc(C)cc1 (racemic)        Ratio IC50               > 5.2

We now examine a further compound.
What does the data say about its Ratio IC50? Entry: COc1ccc(C2OC(c3ccccc3)=NN2C(C)=O)cc1 (stereo not drawn)
> 19
